- studySystem: Cytochrome P450 2D6 (Homo sapiens)
- procedureDetails: Cytochrome P450 Family 2 Subfamily D Member 6 (CYP2D6) small molecule antagonists: luciferase reporter qHTS assay (AID 1671196); further: nearly all actives have a fitted effect of over 50% in size
- experimentalParameters: P450-Glo CYP2D6 enzyme assay, luciferin luminescence, 1 h; series mostly up to 115 µM
Inconclusive results are not listed. Activity calls are given as the source filed them. The call rests on the fitted dose curve; in most records, active means well fitted inhibition curve with a large enough effect in the repeat runs; inconclusive means weak or mixed curves; inactive means no such curve, though single readings can be large or run the other way.
Possible outcomes: 1 for active, -1 for inactive

>>> classname("Nc1ccc(C(=O)O)c(O)c1")
-1
>>> classname("CCn1c2ccccc2c2cc([N+](=O)[O-])ccc21")
-1
>>> classname("O=C(O)Cc1ccc2c(c1)C(=O)c1ccccc1CO2")
-1
>>> classname("CCCCCCCCCCCCOC(=O)c1ccc(O)cc1")
1
>>> classname("CC(C)OC(=O)C(O)(CC(=O)O)CC(=O)O")
-1
>>> classname("O=C(O)CCN(C1(C(=O)NO)CCCC1)S(=O)(=O)c1ccc(Oc2ccc(F)cc2)cc1")
-1
>>> classname("Nc1ccc(Oc2ccc(Cl)cc2)cc1")
1
>>> classname("O=C(O)c1cc(O)c2ccccc2c1O")
1
>>> classname("Cc1c(F)c(N2CCNC(C)C2)cc2c1c(=O)c(C(=O)O)cn2C1CC1 (configuration not stated)")
-1
>>> classname("OC[C@@H](O)[C@@H](O)CO")
-1
>>> classname("Cc1cc(C(C#N)c2ccc(Cl)cc2)c(Cl)cc1NC(=O)c1cc(I)cc(I)c1O (configuration not stated)")
-1
>>> classname("CC(CO)Oc1ccccc1 (configuration not stated)")
1

Measured values drawn from PubChem BioAssay (Tox21) for this set.
